system: UACC-257; assay: NCI tumour cell line growth inhibition, 48 h
Activity calls are given as the source filed them. Cut-off read from the data, not from the text of the source: active = GI50 up to about 1.1 µM and inactive = higher.
Respond only with the outcome that fits, drawn from active, inactive

Observe how each entry below is paired with its result.
Cc1ccc(C)n1-c1ccccc1C1C=CN(C(=O)OC(C)(C)C)C=C1: inactive
O=C1OC2C(O)COC2(O)C1(O)Cc1c[nH]c2ccccc12 (centres undefined): inactive
COc1ccc(OC)c(-c2nc3n(c2/C=C2/C(=O)Nc4ccccc42)CCS3)c1: inactive
C/C(=N\Nc1nc2cc(Cl)ccc2s1)c1ccccn1: active
CC(C)(C)c1cc(C(O)(C(F)(F)F)C(F)(F)F)c2c(c1)C(C(F)(F)F)(C(F)(F)F)OC(C)(C(C)(C)C)N2 (centres undefined): inactive

Ask | In this assay, the call recorded for `CCOC(=O)C(=O)Nc1ccc(Cl)cc1C` was what?
Reply | inactive

Ask | GET /call?item= `CN(C)CCNC(=O)c1cccc2c(=O)c3ccccc3oc12` returns the recorded outcome of this test.
Reply | inactive

Ask | How was `O=C(O)COc1ccc(C(=O)/C(SS/C(C(=O)c2ccc(OCC(=O)O)c(Cl)c2Cl)=C2\C=C(c3ccc(F)cc3)SS2)=C2/C=C(c3ccc(F)cc3)SS2)c(Cl)c1Cl` classified in this test?
Reply | inactive

Ask | In this assay, the call recorded for `CC(C)(C)CC(C)(C)c1ccc(O)c(C[N+](C)(C)[O-])c1` was what?
Reply | inactive
